assay: Selectivity index, ratio of IC50 for rat L6 cells to IC50 for chloroquine/pyrimethamine-resistant Plasmodium falciparum K1 infected in human red blood cells; format: toxicity, cell-based; conditions: read-out: Ratio IC50
# selectivity ratio values compiled below
The answer should be written as a number, with no unit following it.

- line.notation: "Cl.Cl.N=C(N)c1ccc(-c2cc(-c3ccc(C(=N)N)cn3)on2)cc1"
  selectivity ratio: 3750
- line.notation: "Cl.Cl.N=C(N)c1ccc(-c2cc(-c3cc(C(=N)N)ccn3)on2)cc1"
  selectivity ratio: 2570

INPUT: // query selectivity ratio value for entry N=C(N)c1cccc(-c2cc(-c3cc(C(=N)N)ccn3)no2)c1
OUTPUT: 8700

###

test: Selectivity index, ratio of IC50 for rat L6 cells to IC50 for chloroquine/pyrimethamine-resistant Plasmodium falciparum K1 infected in human red blood cells; format: toxicity, cell-based; details: read-out: Ratio IC50
# selectivity ratio values compiled below
The answer should be written as a number, with no unit following it.

Solved cases below.
- line.notation: "Cl.Cl.N=C(N)c1cccc(-c2cc(-c3ccc(C(=N)N)nc3)no2)c1"
  selectivity ratio: 3800
- line.notation: "Cl.Cl.N=C(N)c1cccc(-c2cc(-c3ccc(C(=N)N)nc3)on2)c1"
  selectivity ratio: 1290
- line.notation: "Cl.Cl.N=C(N)c1ccc(-c2cc(-c3cncc(C(=N)N)c3)on2)cc1"
  selectivity ratio: 231
- line.notation: "Cl.Cl.N=C(N)c1ccc(-c2cc(-c3cc(C(=N)N)ccn3)no2)cc1"
  selectivity ratio: 14200
- line.notation: "Cl.Cl.N=C(N)c1ccc(-c2cc(-c3ccc(C(=N)N)nc3)no2)cc1"
  selectivity ratio: 6330

Now look at this entry.
INPUT: // query selectivity ratio value for entry Cl.N=C(N)c1cncc(-c2cc(-c3ccc(C(=N)N)nc3)no2)c1
OUTPUT: 440

###

test: Selectivity index, ratio of IC50 for rat L6 cells to IC50 for chloroquine/pyrimethamine-resistant Plasmodium falciparum K1 infected in human red blood cells; format: toxicity, cell-based; conditions: read-out: Ratio IC50
# selectivity ratio values compiled below
The answer should be written as a number, with no unit following it.

- line.notation: "Cl.Cl.N=C(N)c1ccc(-c2cc(-c3ccc(C(=N)N)nc3)on2)cn1"
  selectivity ratio: 6650
- line.notation: "Cl.Cl.N=C(N)c1ccc(-c2cc(-c3cncc(C(=N)N)c3)no2)cc1"
  selectivity ratio: 1170
- line.notation: "Cl.Cl.N=C(N)c1ccc(-c2cc(-c3cccc(C(=N)N)c3)no2)nc1"
  selectivity ratio: 27800
- line.notation: "Cl.Cl.N=C(N)c1ccc(-c2cc(-c3ccc(C(=N)N)cn3)no2)cc1"
  selectivity ratio: 2770
- line.notation: "Cl.Cl.N=C(N)c1ccc(-c2cc(-c3ccc(C(=N)N)nc3)on2)cc1"
  selectivity ratio: 1050

INPUT: // query selectivity ratio value for entry Cl.Cl.N=C(N)c1cncc(-c2cc(-c3ccc(C(=N)N)nc3)on2)c1
OUTPUT: 1400

INPUT: Same thing, different compound: Cl.Cl.N=C(N)c1ccc(-c2cc(-c3cccc(C(=N)N)c3)on2)nc1
OUTPUT: 17400

###

tested on: Trypanosoma brucei rhodesiense; experiment: Trypanocidal activity against bloodstream form of Trypanosoma brucei rhodesiense STIB900 infected in NMRI mouse assessed as decrease in parasitemia at 5 mg/kg, ip qd administered for 4 days measured once per week until 60 days by microscopic analysis; assay type: functional, organism-based; set-up: dose 5 mg/kg
The source made the active and inactive calls. No cut-off for these calls is given here.
recorded.metric: Activity

Solved cases below.
- compound: "Cl.Cl.N=C(N)c1ccc(-c2cc(-c3cc(C(=N)N)ccn3)on2)cc1"
  target.system: "Trypanosoma brucei rhodesiense"
  Activity: "inactive"
- compound: "Cl.Cl.N=C(N)c1cccc(-c2cc(-c3ccc(C(=N)N)nc3)on2)c1"
  target.system: "Trypanosoma brucei rhodesiense"
  Activity: "inactive"
- compound: "Cl.Cl.Cl.N=C(N)c1ccc(-c2cc(-c3ccc(C(=N)N)cc3Cl)no2)cc1"
  target.system: "Trypanosoma brucei rhodesiense"
  Activity: "inactive"
- compound: "Cl.Cl.N=C(N)c1cccc(-c2cc(-c3ccc(C(=N)N)cc3[N+](=O)[O-])no2)c1"
  target.system: "Trypanosoma brucei rhodesiense"
  Activity: "inactive"
- compound: "Cl.Cl.Cl.N=C(N)c1cccc(-c2cc(-c3cc(C(=N)N)ccc3Cl)no2)c1"
  target.system: "Trypanosoma brucei rhodesiense"
  Activity: "inactive"
- compound: "COc1cc(C(=N)N)ccc1-c1cc(-c2cc(C(=N)N)ccc2OC)on1.Cl.Cl"
  target.system: "Trypanosoma brucei rhodesiense"
  Activity: "Active"

INPUT: // query Activity value for entry Nc1nc(N)nc(Nc2ccc([As]3SCC(CO)S3)cc2)n1 (configuration not stated)
OUTPUT: Active

INPUT: Same thing, different compound: Cl.Cl.N=C(N)c1cncc(-c2cc(-c3ccc(C(=N)N)nc3)on2)c1
OUTPUT: inactive

INPUT: Same thing, different compound: Cl.Cl.Cl.N=C(N)c1ccc(-c2cc(-c3ccc(C(=N)N)cc3Cl)on2)cc1
OUTPUT: inactive

INPUT: Same thing, different compound: Cl.Cl.N=C(N)c1cccc(-c2cc(-c3ccc(C(=N)N)cc3[N+](=O)[O-])on2)c1
OUTPUT: inactive

INPUT: Same thing, different compound: Cl.Cl.N=C(N)c1cccc(-c2cc(-c3cccc(C(=N)N)c3)on2)c1
OUTPUT: inactive

INPUT: Same thing, different compound: Cl.Cl.N=C(N)c1cccc(-c2cc(-c3ccc(C(=N)N)nc3)no2)c1
OUTPUT: Active

INPUT: Same thing, different compound: Cl.Cl.Cl.N=C(N)c1ccc(-c2cc(-c3cc(C(=N)N)ccc3Cl)on2)cc1
OUTPUT: inactive

INPUT: Same thing, different compound: COc1cc(C(=N)N)ccc1-c1cc(-c2cccc(C(=N)N)c2)on1.Cl.Cl
OUTPUT: inactive

INPUT: Same thing, different compound: COc1ccc(C(=N)N)cc1-c1cc(-c2cc(C(=N)N)ccc2OC)on1.Cl.Cl
OUTPUT: inactive

INPUT: Same thing, different compound: COc1cc(C(=N)N)ccc1-c1cc(-c2ccc(C(=N)N)cc2OC)on1.Cl.Cl
OUTPUT: Active

INPUT: Same thing, different compound: COc1cc(C(=N)N)ccc1-c1cc(-c2cccc(C(=N)N)c2)no1.Cl.Cl
OUTPUT: inactive

###

experiment: Selectivity index, ratio of IC50 for rat L6 cells to IC50 for Trypanosoma brucei rhodesiense STIB900; type: toxicity, cell-based; conditions: read-out: Ratio IC50
recorded.metric: selectivity ratio
The answer should be written as a number, with no unit following it.

Solved cases below.
- line.notation: "Cl.Cl.N=C(N)c1cncc(-c2cc(-c3ccc(C(=N)N)nc3)on2)c1"
  observed.result: 206
- line.notation: "Cl.Cl.N=C(N)c1ccc(-c2cc(-c3cncc(C(=N)N)c3)no2)cc1"
  observed.result: 270
- line.notation: "Cl.N=C(N)c1cncc(-c2cc(-c3ccc(C(=N)N)nc3)no2)c1"
  observed.result: 111
- line.notation: "Cl.Cl.N=C(N)c1ccc(-c2cc(-c3cccc(C(=N)N)c3)no2)nc1"
  observed.result: 15900
- line.notation: "Cl.Cl.N=C(N)c1ccc(-c2cc(-c3ccc(C(=N)N)nc3)on2)cc1"
  observed.result: 643
- line.notation: "Cl.Cl.N=C(N)c1ccc(-c2cc(-c3cncc(C(=N)N)c3)on2)cc1"
  observed.result: 302
- line.notation: "Cl.Cl.N=C(N)c1ccc(-c2cc(-c3cc(C(=N)N)ccn3)no2)cc1"
  observed.result: 1350

Now look at this entry.
INPUT: // query selectivity ratio value for entry Cl.Cl.N=C(N)c1cccc(-c2cc(-c3ccc(C(=N)N)nc3)on2)c1
OUTPUT: 379

###

test system: Trypanosoma brucei rhodesiense; assay: Trypanocidal activity against bloodstream form of Trypanosoma brucei rhodesiense STIB900 infected in NMRI mouse assessed as mean survival days at 5 mg/kg, ip qd administered for 4 days; type: functional
Activity calls are given as the source filed them. The calls are words filed in the database; no cut-off is given here.
recorded.metric: MSD

- line.notation: "COc1cc(C(=N)N)ccc1-c1cc(-c2cccc(C(=N)N)c2)on1.Cl.Cl"
  target.system: "Trypanosoma brucei rhodesiense"
  recorded.metric: "MSD"
  observed.result: "inactive"
- line.notation: "Cl.Cl.Cl.N=C(N)c1ccc(-c2cc(-c3cc(C(=N)N)ccc3Cl)no2)cc1"
  target.system: "Trypanosoma brucei rhodesiense"
  recorded.metric: "MSD"
  observed.result: "inactive"
- line.notation: "COc1ccc(C(=N)N)cc1-c1cc(-c2cccc(C(=N)N)c2)no1.Cl.Cl"
  target.system: "Trypanosoma brucei rhodesiense"
  recorded.metric: "MSD"
  observed.result: "inactive"

###

system: Trypanosoma brucei rhodesiense; experiment: Trypanocidal activity against bloodstream form of Trypanosoma brucei rhodesiense STIB900 infected in NMRI mouse assessed as mean survival days at 5 mg/kg, ip qd administered for 4 days; type: functional; conditions: route intraperitoneal
recorded.metric: MSD

Solved cases below.
- line.notation: "Cl.Cl.Cl.N=C(N)c1ccc(-c2cc(-c3ccc(C(=N)N)cc3Cl)on2)cc1"
  MSD: ">31 days"
- line.notation: "Cl.Cl.N=C(N)c1ccc(-c2cc(-c3cccc(C(=N)N)c3)no2)nc1"
  MSD: ">38.75 days"
- line.notation: "COc1ccc(C(=N)N)cc1-c1cc(-c2ccc(C(=N)N)cc2)no1.Cl.Cl"
  MSD: ">60 days"
- line.notation: "Cl.Cl.N=C(N)c1cccc(-c2cc(-c3ccc(C(=N)N)nc3)no2)c1"
  MSD: ">60 days"
- line.notation: "Cl.Cl.N=C(N)c1ccc(-c2cc(-c3cncc(C(=N)N)c3)on2)cc1"
  MSD: ">54.5 days"
- line.notation: "Cl.Cl.Cl.N=C(N)c1cccc(-c2cc(-c3cc(C(=N)N)ccc3Cl)no2)c1"
  MSD: "22.25 days"

INPUT: // query MSD value for entry Cl.Cl.N=C(N)c1ccc(-c2cc(-c3ccc(C(=N)N)cc3[N+](=O)[O-])on2)cc1
OUTPUT: >53.75 days

INPUT: Same thing, different compound: Cl.Cl.N=C(N)c1ccc(-c2cc(-c3ccc(C(=N)N)cn3)on2)cc1
OUTPUT: >44 days

INPUT: Same thing, different compound: Cl.Cl.N=C(N)c1cccc(-c2cc(-c3cncc(C(=N)N)c3)on2)c1
OUTPUT: 21.75 days

INPUT: Same thing, different compound: Cl.Cl.N=C(N)c1ccc(-c2cc(-c3ccc(C(=N)N)nc3)on2)cc1
OUTPUT: >57.25 days

Just for reference, ChEMBL document CHEMBL3102749 is where these values come from.
